Taken from patent US20040121965A1.

Listed molecules paired with reported RR, relative resistance
system: HL60/AR (MRP1); test: Cell survival assay, HL60/AR (MRP1); conditions: IC50 HL60/AR / IC50 HL60

Observe how each entry below is paired with its result.
- COc1cccc2c1C(=O)c1c(O)c3c(c(O)c1C2=O)C[C@@](O)(C(=O)CO)C[C@@H]3O[C@H]1C[C@H](N)[C@H](O)[C@H](C)O1: >124
- O=C1c2c(O)ccc(O)c2C(=O)c2c(NCCNCCO)ccc(NCCNCCO)c21: 32.4

Return reported RR, relative resistance; argument: `CC[C@]1(O)C[C@@H]2CN(CCc3c([nH]c4ccccc34)[C@@](C(=O)OC)(c3cc4c(cc3OC)N(C)[C@H]3[C@@](O)(C(=O)OC)[C@H](OC(C)=O)[C@]5(CC)C=CCN6CC[C@]43[C@@H]65)C2)C1`
3.7

Return reported RR, relative resistance; argument: `CN[C@H](C(=O)N[C@H](C(=O)N(C)[C@H](/C=C(\C)C(=O)O)C(C)C)C(C)(C)C)C(C)(C)c1ccccc1`
1.2

----------
tested on: KB-3-1; assay: Cell survival assay (SRB), KB-3-1; type: cell-based, human; conditions: Homo sapiens, KB 3-1, 72 h, read-out: IC50 in parental cell line KB-3-1
Measurement name: IC50 (nM)
Write down the numeric answer in nM and omit the unit.

Return reported IC50; argument: CN[C@H](C(=O)N[C@H](C(=O)N(C)[C@H](/C=C(\C)C(=O)O)C(C)C)C(C)(C)C)C(C)(C)c1ccccc1 [Example 129]
1

----------
System: KB-3-1
Test: Cell survival assay (SRB), KB-3-1
Type: cell-based, human
Conditions: Homo sapiens, KB 3-1, KB-3-1 cells (paclitaxel-sensitive parent); read-out: In vitro IC50 (nM) KB-3-1
Description: Cells lines with previously known mechanisms of resistance. […] Res. 8: 207-218,1996); KB-3-1 (parental derived from an epidermoid carcinoma), KB-8.5, KB-V1 (Akiyama S-I, Fojo A, Hanover J A, Pastan I, Gottesman M M. Isolation and genetic characterization of human KB cell lines resistant to multiple drugs. […] 2.2. […] Absorbance is read on a Victor V multi-label plate reader (Perkin Elmer, Gaithersburg, Md.).
Measurement name: IC50 (nM)
Write down the numeric answer in nM and omit the unit.

Observe how each entry below is paired with its result.
* CCC[C@H](NC(=O)[C@@H](NC)C(C)(C)c1ccccc1)C(=O)N(C)[C@H](/C=C(\C)C(=O)O)C(C)C.O=C(O)C(F)(F)F | 15
* CN[C@H](C(=O)N[C@H](C(=O)N(C)[C@H](/C=C(\C)C(=O)O)C(C)C)[C@H](C)O)C(C)(C)c1ccccc1 | 311

Return reported IC50; argument: `CN[C@@H](C(=O)N[C@H](C(=O)N(C)[C@H](/C=C(\C)C(=O)O)C(C)C)C(C)(C)C)C(C)(C)Cc1ccccc1`
20

----------
system: KB-3-1; experiment: Cell survival assay (SRB), KB-3-1; format: cell-based, human; conditions: Homo sapiens; KB-3-1 parental; Table 8; read-out: KB-3-1 IC50
Measurement name: IC50 (nM)
Write down the numeric answer in nM and omit the unit.

Observe how each entry below is paired with its result.
* CC[C@@]1(O)C(=O)OCc2c1cc1n(c2=O)Cc2cc3c(CN(C)C)c(O)ccc3nc2-1 [Topotecan, topotecan] | 18.1
* CC[C@@]1(O)C(=O)OCc2c1cc1n(c2=O)Cc2cc3ccccc3nc2-1 [Camptothecin, camptothecin] | 14.9

Return reported IC50; argument: CCC1=C[C@@H]2CN(C1)Cc1c([nH]c3ccccc13)[C@@](C(=O)OC)(c1cc3c(cc1OC)N(C)[C@H]1[C@@](O)(C(=O)OC)[C@H](OC(C)=O)[C@]4(CC)C=CCN5CC[C@]31[C@@H]54)C2 [vinorelbine, reference compound]
1.22

----------
tested on: KB-V1 (MDR1++); experiment: Cell survival assay (SRB), KB-V1 (MDR1++)
Lab note: anything with Ratio KBV1/KB at or over 40 counts as rule met; the rest go in rule not met.

# count of solved cases: 2
- CN[C@H](C(=O)N[C@H](C(=O)N(C)[C@H](/C=C(\C)C(=O)O)C(C)C)C(C)(C)C)C(C)(C)c1ccccc1OC: rule met
- CCOC(=O)/C(C)=C/[C@H](C(C)C)N(C)C(=O)[C@@H](NC(=O)[C@H](NC)C(C)(C)c1ccccc1)C(C)(C)C: rule not met

// inclusive: Ratio KBV1/KB at least 40? input: `C/C(=C\[C@H](C(C)C)N(C)C(=O)[C@@H](NC(=O)[C@@H](N(C)CCO)C(C)(C)c1ccccc1)C(C)(C)C)C(=O)O`
rule met

// inclusive: Ratio KBV1/KB at least 40? input: `CCOC(=O)/C(C)=C/[C@H](C(C)C)N(C)C(=O)[C@@H](NC(=O)[C@@H](NC)C(C)(C)c1ccccc1)C(C)(C)SC`
rule not met

// inclusive: Ratio KBV1/KB at least 40? input: CNC(C(=O)NC(C(=O)N(C)C(C=C(C)C(=O)O)C(C)C)C(C)(C)C)C(C)c1ccccc1.O=C(O)C(F)(F)F (stereo not shown)
rule not met

// inclusive: Ratio KBV1/KB at least 40? input: `CN[C@@H](C(=O)N[C@H](C(=O)N(C)[C@H](/C=C(\C)C(=O)O)C(C)C)C(C)(C)C)C(C)(C)c1ccc(C)c(C)c1`
rule met

// inclusive: Ratio KBV1/KB at least 40? input: `CN[C@H](C(=O)N[C@@H](C(=O)N(C)[C@H](/C=C(\C)C(=O)O)C(C)C)C(C)C)C(C)(C)c1ccccc1`
rule met

// inclusive: Ratio KBV1/KB at least 40? input: `CN[C@@H](C(=O)N[C@H](C(=O)N(C)[C@H](/C=C(\C)C(=O)O)C(C)C)C(C)(C)C)C(C)(C)c1cccc(C)c1`
rule met

// inclusive: Ratio KBV1/KB at least 40? input: `CN[C@H](C(=O)N[C@H](C(=O)N(C)[C@H](/C=C(\C)C(=O)O)Cc1ccccc1)C(C)(C)C)C(C)(C)c1ccccc1`
rule not met

// inclusive: Ratio KBV1/KB at least 40? input: `CN[C@H](C(=O)N[C@H](C(=O)N(C)[C@H](/C=C(\C)C(=O)O)C(C)C)C(C)(C)C)C(C)(C)c1csc2ccccc12`
rule met

// inclusive: Ratio KBV1/KB at least 40? input: CCOC(=O)/C(C)=C/[C@H](C(C)C)N(C)C(=O)[C@@H](NC(=O)C(NC)C(C)(C)c1csc2ccccc12)C(C)(C)C (stereo partly shown)
rule not met

// inclusive: Ratio KBV1/KB at least 40? input: CCN[C@H](C(=O)N[C@H](C(=O)N(C)[C@H](/C=C(\C)C(=O)O)C(C)C)C(C)(C)C)C(C)(C)c1ccccc1 [Example 32]
rule met

// inclusive: Ratio KBV1/KB at least 40? input: `CN[C@H](C(=O)N[C@H](C(=O)N(C)[C@H](/C=C(\C)C(=O)O)C(C)C)C(C)(C)C)C(C)(C)c1ccc(C)cc1`
rule not met

// inclusive: Ratio KBV1/KB at least 40? input: `CCN[C@H](C(=O)N[C@H](C(=O)N(C)[C@H](/C=C(\C)C(=O)OCC)C(C)C)C(C)(C)C)C(C)(C)c1ccccc1`
rule not met

// inclusive: Ratio KBV1/KB at least 40? input: `CCN(C(=O)[C@@H](NC(=O)[C@@H](NC)C(C)(C)c1ccccc1)C(C)C)[C@H](/C=C(\C)C(=O)O)C(C)C.O=C(O)C(F)(F)F`
rule met

// inclusive: Ratio KBV1/KB at least 40? input: `CN[C@H](C(=O)N[C@H](C(=O)N(C)[C@H](/C=C(\C)C(=O)O)C(C)C)C(C)(C)C)[C@H](C)c1ccccc1`
rule not met

// inclusive: Ratio KBV1/KB at least 40? input: `CN[C@H](C(=O)N[C@H](C(=O)N(C)[C@H](/C=C(\C)C(=O)NCCC#N)C(C)C)C(C)(C)C)C(C)(C)c1ccccc1`
rule not met

// inclusive: Ratio KBV1/KB at least 40? input: CNC(C(=O)N[C@H](C(=O)N(C)[C@@H](/C=C(\C)C(=O)O)C(C)C)C(C)(C)C)C1(c2ccccc2)CCCCC1 (stereo partly shown)
rule not met

----------
tested on: KB-V1 (MDR1++); assay: Cell survival assay (SRB), KB-V1 (MDR1++)
Lab note: anything with Ratio KBV1/KB at or over 80 counts as satisfied; the rest go in not satisfied.

* CN[C@H](C(=O)N[C@H](C(=O)N(C)[C@H](/C=C(\C)C(=O)O)C(C)C)C(C)(C)C)C(C)(C)c1c[nH]c2ccccc12 [Example 141] | satisfied
* CN[C@H](C(=O)N[C@H](C(=O)N(C)[C@H](/C=C(\C)C(=O)O)C(C)C)C(C)(C)SC)C(C)(C)c1ccccc1 [Example 80] | satisfied
* CN[C@@H](C(=O)N[C@H](C(=O)N(C)[C@H](/C=C(\C)C(=O)O)C(C)C)C(C)(C)C)C1(c2ccccc2)CCCC1 [Example 72] | not satisfied
* CCOC(=O)/C(C)=C/[C@H](C(C)C)N(C)C(=O)[C@@H](NC(=O)[C@@H](NC)C(C)(C)c1cc(C)cc(C)c1)C(C)(C)C [Example 16a] | satisfied
* CCCC[C@@H](/C=C(\C)C(=O)O)N(C)C(=O)[C@@H](NC(=O)[C@@H](NC)C(C)(C)c1ccccc1)C(C)(C)C [Example 75] | not satisfied

// inclusive: Ratio KBV1/KB at least 80? input: CCC(CC)(c1ccccc1)[C@H](NC)C(=O)N[C@H](C(=O)N(C)[C@H](/C=C(\C)C(=O)O)C(C)C)C(C)(C)C [Example 125]
not satisfied

// inclusive: Ratio KBV1/KB at least 80? input: CN[C@H](C(=O)N[C@@H](Cc1ccccc1)C(=O)N(C)[C@H](/C=C(\C)C(=O)O)C(C)C)C(C)(C)c1ccccc1 [Example 137]
not satisfied

// inclusive: Ratio KBV1/KB at least 80? input: CCOC(=O)/C(C)=C/[C@H](C(C)C)N(C)C(=O)[C@@H](NC(=O)[C@@H](NC)C(C)(C)c1ccc(OC)cc1)C(C)(C)C [Example 56]
not satisfied

// inclusive: Ratio KBV1/KB at least 80? input: CCOC(=O)/C(C)=C/[C@H](C(C)C)N(C)C(=O)[C@@H](NC(=O)[C@@H](NC)C(C)(C)c1cccc(C)c1)C(C)(C)C [Example 7a]
satisfied

// inclusive: Ratio KBV1/KB at least 80? input: CN[C@@H](C(=O)N[C@H](C(=O)N(C)[C@H](/C=C(\C)C(=O)O)C(C)C)C(C)(C)C)C(C)(C)c1ccccc1C [Example 36]
satisfied

// inclusive: Ratio KBV1/KB at least 80? input: CN[C@@H](C(=O)N[C@H](C(=O)N(C)[C@H](/C=C(\C)C(=O)O)C(C)C)C(C)(C)C)C(C)(C)c1cccc(Cl)c1 [Example 3]
not satisfied

// inclusive: Ratio KBV1/KB at least 80? input: CN[C@H](C(=O)N[C@H](C(=O)N(C)[C@H](/C=C(\C)C(=O)O)C(C)C)C(C)(C)C)C(C)(C)c1cccc(C(F)(F)F)c1 [Example 62]
not satisfied
